- RUN DESCRIPTION: Protein binding by ultrafiltration, pooled human plasma
- Type: in vitro ADME
- CONDITIONS USED: read-out: protein binding rate in human pooled plasma (converted)
PARAMETER MEASURED: fraction unbound at 500 ng/mL

molecule="N#C[C@]1(CO)O[C@@H](n2cnc3c(O)ncnc32)C[C@@H]1O [SK14-061a, 4′-cyano-2′-deoxyinosine]" parameter_measured="fraction unbound at 500 ng/mL" obs_value=~0.363

====

- RUN DESCRIPTION: Pharmacokinetic study of SK14-061a after oral and intravenous administration in rats
- Format: in vivo
- CONDITIONS USED: rat, plasma, iv; rats, 1 mg/kg
PARAMETER MEASURED: clearance (mL/min/kg)

molecule="N#C[C@]1(CO)O[C@@H](n2cnc3c(O)ncnc32)C[C@@H]1O [SK14-061a, 4′-cyano-2′-deoxyinosine]" parameter_measured=clearance obs_value=34.7
